# Tested on: aggregated human αSyn
# Assay Remarks: Antibody-inducing ability in mice: ELISA antibody titer of immune serum with respect to aggregated human αSyn
# Type: in vivo, mouse
# Experimental Setup: Example 10, modified linker; mice; titer of AJ-p54 or AJ-p150 as control being 1 (logarithm)
Label 1 (yes) when Antibody titer with respect to aggregated human αSyn, relative to control >= 1; otherwise 0 (no).

>  <Substance>
ELKLIFLHRLKRLRKRLKRKGEAYEMPSEE [AJ-G-p150]

>  <Class Assignment>
0 (no)

$$$$
>  <Substance>
ELKLIFLHRLKRLRKRLKRKϵKKKKKKDQLGKNE [AJ-εKKKK-p54]

>  <Class Assignment>
0 (no)

$$$$
>  <Substance>
ELKLIFLHRLKRLRKRLKRKDDAKKEAYEMPSEE [AJ-DDAKK-p150]

>  <Class Assignment>
1 (yes)

$$$$
>  <Substance>
ELKLIFLHRLKRLRKRLKRKEAAAKKKDQLGKNE [AJ-EAAAK-p54]

>  <Class Assignment>
0 (no)

$$$$
>  <Substance>
ELKLIFLHRLKRLRKRLKRKGKKDQLGKNE [AJ-G-p54]

>  <Class Assignment>
0 (no)

$$$$

# input for lookup
Task item: Hi, just wondering whether ELKLIFLHRLKRLRKRLKRKϵKEAYEMPSEE [AJ-εK-p150] shows Antibody titer with respect to aggregated human αSyn, relative to control of 1 or higher.
Reply: 0 (no)
